test system: Streptococcus agalactiae 150G; assay: MIC vs. Streptococcus agalactiae 150G; format: cell-based; set-up: unit not given beside the values; conditions: Table 2a

{"columns": ["COMPOUND", "MIC vs. Streptococcus agalactiae 150G"],
 "data": [
  ["O=C(COc1cc(F)cc(F)c1)NC1C(=O)N2C(C(=O)O)=C(Cl)CSC12 (stereo not drawn)", 0.5],
  ["O=C(COc1ccc(OC(F)(F)F)cc1)NC1C(=O)N2C(C(=O)O)=C(Cl)CSC12 (stereo not drawn)", 1],
  ["O=C(CSc1c(F)c(F)c(F)c(F)c1F)NC1C(=O)N2C(C(=O)O)=C(Cl)CSC12 (stereo not drawn)", 0.5],
  ["CC(=O)OCC1=C(C(=O)O)N2C(=O)[C@@H](NC(=O)Cc3cccs3)[C@H]2SC1 [Cephalothin, reference compound]", 0.5],
  ["O=C(COc1c(F)c(F)c(F)c(F)c1F)NC1C(=O)N2C(C(=O)O)=C(Cl)CCC12 (stereo not drawn)", 2],
  ["O=C(COc1c(F)cc(F)cc1F)NC1C(=O)N2C(C(=O)O)=C(Cl)CSC12 (stereo not drawn)", 1]
]}
